Collected melting point values appear next to each entry.

Please review the following examples before continuing.
>  <MOLECULE>
C[C@@H]1COC(=O)N1c1nc(-c2ccc(Br)cc2)cs1

>  <EXPERIMENTAL VALUE>
197 to 199 °C

$$$$
>  <MOLECULE>
CCC1(CC)COC(=O)N1c1nc(-c2ccc(C#N)cc2)cs1

>  <EXPERIMENTAL VALUE>
145 to 147 °C

$$$$
>  <MOLECULE>
CC1(C)COC(=N)N1c1nc(-c2ccc(C#N)cc2)cs1

>  <EXPERIMENTAL VALUE>
158 to 161 °C

$$$$

Attention now shifts to the item below.
Please list melting point recorded for the compound CC1(C)COC(=O)N1c1nc(-c2cccc(C#N)c2)cs1
181 to 183 °C
